exon inclusion enrichment index by entry:
B1: mRNA-splicing (parent)
chain: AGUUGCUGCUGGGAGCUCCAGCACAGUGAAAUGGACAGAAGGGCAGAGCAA

# Variants of: B1
# Assay method text: exon inclusion enrichment index; higher = more inclusion; WT1 exon 5 minigene, HEK293
Observable: exon inclusion enrichment index

{"Entry sequence": "AGUUACCACCGGGAGCUCCAGCACAGUGAAAUCGACAGAAGGGCAGAGCAA", "Observable": "exon inclusion enrichment index", "Test result": 2.65}
{"Entry sequence": "AGUUGAAGAAGGGAGCUCCAGCACAUGGAAAUGGACAGAAGGGCAGAGCAA", "Observable": "exon inclusion enrichment index", "Test result": 1.76}
{"Entry sequence": "AGUUCUUCUCGGGAGCUCCAGCACAGUGCAAUGGACAGAAGGGCAGAGCAA", "Observable": "exon inclusion enrichment index", "Test result": 1.75}
{"Entry sequence": "AGUUAGGGAUGGGAGCUCCAGCACCAUGAAAUGGACAGAAGGGCAGAGCAA", "Observable": "exon inclusion enrichment index", "Test result": 0.00349}
{"Entry sequence": "AGUUGCUGCUGGGAGCUCUUGCACAGUGAAAUGGACAGAAGGGCAGAGCAA", "Observable": "exon inclusion enrichment index", "Test result": 1.01}
{"Entry sequence": "AGUUGACGACGGGAGCUCCAGCACAGUGAAAUGGACAGAAGGGCAGGUCAA", "Observable": "exon inclusion enrichment index", "Test result": 0.925}
{"Entry sequence": "AGUUCGGACCGGGAGCUCCAGCACAGUGAAAUGGACAGAAGGGCAGAGCAA", "Observable": "exon inclusion enrichment index", "Test result": 2.87}
{"Entry sequence": "AGUUAUAUAUGCUAGCUCCAGCACAGUGAAAUGGACAGAAGGGCAGAGCAA", "Observable": "exon inclusion enrichment index", "Test result": 0.000527}
{"Entry sequence": "AGUUCGCGCCGGGAGCUCCAGCACAGUGAAAUGGACAGAAGUGCAGAGCAA", "Observable": "exon inclusion enrichment index", "Test result": 4.02}
{"Entry sequence": "AGUUCGCGCCGGGAGCUCCAGCACAGUGAAAUGGACAGAAGGCCAGAGCAA", "Observable": "exon inclusion enrichment index", "Test result": 2.7}
{"Entry sequence": "AGUUCACACAGGGAGCUCCAGCACAGUGAAAUGGACAGAAGGGACGAGCAA", "Observable": "exon inclusion enrichment index", "Test result": 0.385}
{"Entry sequence": "AGUUAUAUAUGGGAGCUCCAGCACAGCGAAAUGGACAGAAGGGCAGAGCAA", "Observable": "exon inclusion enrichment index", "Test result": 0.399}
{"Entry sequence": "AGUUGAAGAAGGGAGCUCCAGCACAGUGAAAUGGACAGAAGGGCGAAGCAA", "Observable": "exon inclusion enrichment index", "Test result": 2.3}
{"Entry sequence": "AGUUUCUUUUGGGAGCUCCAGCACAGUGAAAUGGACAGUUGGGCAGAGCAA", "Observable": "exon inclusion enrichment index", "Test result": 0.0352}
{"Entry sequence": "AGUUACCACCGGGCCCUCCAGCACAGUGAAAUGGACAGAAGGGCAGAGCAA", "Observable": "exon inclusion enrichment index", "Test result": 0.761}
{"Entry sequence": "AGUUCGCGCCGGGAGCUCCAGCACGUUGAAAUGGACAGAAGGGCAGAGCAA", "Observable": "exon inclusion enrichment index", "Test result": 4.09}
{"Entry sequence": "AGUUCACACAACGAGCUCCAGCACAGUGAAAUGGACAGAAGGGCAGAGCAA", "Observable": "exon inclusion enrichment index", "Test result": 0.495}
{"Entry sequence": "AGUUCUUCUCGGGAGCUCCAGCACAGUUGAAUGGACAGAAGGGCAGAGCAA", "Observable": "exon inclusion enrichment index", "Test result": 1.84}
{"Entry sequence": "AGUUCCUACAGGGAGCUCCAGCACAGUGAAAUGGACAGAAGGGCAGAGCAA", "Observable": "exon inclusion enrichment index", "Test result": 0.0176}
{"Entry sequence": "AGUUCACACAGGGAGCUCCAGCACAGAUAAAUGGACAGAAGGGCAGAGCAA", "Observable": "exon inclusion enrichment index", "Test result": 0.0378}
{"Entry sequence": "AGUUCACACAGGGAGCUCCAGCACAGUAAAAUGGACAGAAGGGCAGAGCAA", "Observable": "exon inclusion enrichment index", "Test result": 0.0118}
{"Entry sequence": "AGUUGCUGCUGGGAGCUCCAGCACAGUGAAAUGGACAUAAGGGCAGAGCAA", "Observable": "exon inclusion enrichment index", "Test result": 0.029}
{"Entry sequence": "AGUUGAAGAAGGGAGCUCCAGCACAGCCAAAUGGACAGAAGGGCAGAGCAA", "Observable": "exon inclusion enrichment index", "Test result": 1.36}
{"Entry sequence": "AGUUCACACAGGGAGCUCCAGCACAGGCAAAUGGACAGAAGGGCAGAGCAA", "Observable": "exon inclusion enrichment index", "Test result": 0.0314}
{"Entry sequence": "AGUUCACACAGGGAGCUCCAGCAAGGUGAAAUGGACAGAAGGGCAGAGCAA", "Observable": "exon inclusion enrichment index", "Test result": 0.156}
{"Entry sequence": "AGUUAGGGAUGGGAGAGCCAGCACAGUGAAAUGGACAGAAGGGCAGAGCAA", "Observable": "exon inclusion enrichment index", "Test result": 0.00129}
{"Entry sequence": "AGUUCACACAGGGAGCUCCAGCACAGUGAAAUGGACAGAAGGGCAGCACAA", "Observable": "exon inclusion enrichment index", "Test result": 0.0538}
{"Entry sequence": "AGUUGCUGCUGGGAGCUCCAGCACAGGGAAAUGGACAGAAGGGCAGAGCAA", "Observable": "exon inclusion enrichment index", "Test result": 0.0622}
{"Entry sequence": "AGUUGUCACCGGGAGCUCCAGCACAGUGAAAUGGACAGAAGGGCAGAGCAA", "Observable": "exon inclusion enrichment index", "Test result": 2.38}
{"Entry sequence": "AGUUGCUGCUGGGAGCUUGAGCACAGUGAAAUGGACAGAAGGGCAGAGCAA", "Observable": "exon inclusion enrichment index", "Test result": 0.995}
{"Entry sequence": "AGUUCAGGAUGGGAGCUCCAGCACAGUGAAAUGGACAGAAGGGCAGAGCAA", "Observable": "exon inclusion enrichment index", "Test result": 0.352}
{"Entry sequence": "AGUUGCUAAUGGGAGCUCCAGCACAGUGAAAUGGACAGAAGGGCAGAGCAA", "Observable": "exon inclusion enrichment index", "Test result": 0.383}
{"Entry sequence": "AGUUACCACCGGGAGCUUGAGCACAGUGAAAUGGACAGAAGGGCAGAGCAA", "Observable": "exon inclusion enrichment index", "Test result": 0.804}
{"Entry sequence": "AGUUGCUGCUGGGAGCUCCAGCACAGUGAAAUGGGGAGAAGGGCAGAGCAA", "Observable": "exon inclusion enrichment index", "Test result": 0.00669}
{"Entry sequence": "AGUUAGGGAUGGGAAGUCCAGCACAGUGAAAUGGACAGAAGGGCAGAGCAA", "Observable": "exon inclusion enrichment index", "Test result": 0.00097}
{"Entry sequence": "AGUUACCACCGGGAGCUCCAGCACAGUGAAAGCGACAGAAGGGCAGAGCAA", "Observable": "exon inclusion enrichment index", "Test result": 2.16}
{"Entry sequence": "AGUUAUAUAUGGGAGCAUCAGCACAGUGAAAUGGACAGAAGGGCAGAGCAA", "Observable": "exon inclusion enrichment index", "Test result": 0.0116}
{"Entry sequence": "AGUUAUAUAUGGGAGCUCCAGUCCAGUGAAAUGGACAGAAGGGCAGAGCAA", "Observable": "exon inclusion enrichment index", "Test result": 0.0341}
{"Entry sequence": "AGUUACCACCGGGAGCUCCAGCACAGUGAAAUGGACAGAAUAGCAGAGCAA", "Observable": "exon inclusion enrichment index", "Test result": 0.909}
{"Entry sequence": "AGUUCUUCUCGGGAGCUCCAGCACAGUGAAAUGGACAGAAAAGCAGAGCAA", "Observable": "exon inclusion enrichment index", "Test result": 1.54}
{"Entry sequence": "AGUUACCACCGGGAGCUCCAGCACAGUGAAAUGGAAUGAAGGGCAGAGCAA", "Observable": "exon inclusion enrichment index", "Test result": 1.07}
{"Entry sequence": "AGUUACCACCCGGAGCUCCAGCACAGUGAAAUGGACAGAAGGGCAGAGCAA", "Observable": "exon inclusion enrichment index", "Test result": 1.96}
{"Entry sequence": "AGUUCGCGCCGGGAGCUCCAGCACAGUGAAAUGGACAGAAGGGCAUCGCAA", "Observable": "exon inclusion enrichment index", "Test result": 3.73}
{"Entry sequence": "AGUUCGCGCCGGGAGCUCCAGCACAGUGAAAUGGACAGGCGGGCAGAGCAA", "Observable": "exon inclusion enrichment index", "Test result": 3.86}
{"Entry sequence": "AGUUAUAUAUGGGAGCUCCAGCACAGUGAAAUGGGUAGAAGGGCAGAGCAA", "Observable": "exon inclusion enrichment index", "Test result": 0.00124}
{"Entry sequence": "AGUUAUAUAUGGGAGCUCCAGCACAGUGAAAUGGACGAAAGGGCAGAGCAA", "Observable": "exon inclusion enrichment index", "Test result": 0.0869}
